system: ATP; assay: switch fluorescence ratio, 500 uM ATP over buffer (Cy3 cluster intensity, sum of 5 cycles each) (fold (ratio)); higher = stronger signal-on switching upon ATP binding; sequences stand for … in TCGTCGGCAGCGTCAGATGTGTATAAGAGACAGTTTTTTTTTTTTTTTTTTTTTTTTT…TC; details: aptamer strand: ATP DNA aptamer (quencher-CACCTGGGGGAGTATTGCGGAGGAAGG + anchor), 100 nM annealed; ATP concentration: 500 uM;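 further: ATP exposure 15 min at 22 °C before imaging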
So basically: switch fluorescence ratio at 1 or higher? That is class 1. Lower than 1? That is class 0.

Could you verify whether the entry TTCGGGGACG shows switch fluorescence ratio of no less than 1?
class 0

Can you handle GTCCAAGGGG next?
class 1

Also need TGGTATTGGT , thanks.
class 0

Another sequence to check: TTTCAGTTTT
class 1

TATGGGAAGC ?
class 1

Continue with the sequence presented below.
Identify whether the reported switch fluorescence ratio of the following sequence is 1 or greater: TTATTTTTGA
class 1
